This section presents binders with their documented relative binding ratio values.
- MEASURED ON: HLA-A*1101 (purified HLA class I molecule) (human)
- ASSAY INFO: inhibition of 125I probe peptide binding to purified HLA; ratio to standard peptide

>  <BINDER>
GILIKRRQQK (also called Her2/neu.672 (10-mer)) [HER2/neu peptide, position 672, 10 amino acids]

>  <relative binding ratio>
0.0014 ratio (IC50 standard / IC50 test)

$$$$
>  <BINDER>
CVNCSQFLR (also called Her2/neu.528) [HER2/neu peptide, position 528, 9 amino acids]

>  <relative binding ratio>
0.031 ratio (IC50 standard / IC50 test)

$$$$
>  <BINDER>
GAMPNQAQMR (also called Her2/neu.704 (10-mer)) [HER2/neu peptide, position 704, 10 amino acids]

>  <relative binding ratio>
0.0041 ratio (IC50 standard / IC50 test)

$$$$
>  <BINDER>
CAAGCTGPK (also called Her2/neu.240 (9-mer)) [HER2/neu peptide, position 240, 9 amino acids]

>  <relative binding ratio>
0.0021 ratio (IC50 standard / IC50 test)

$$$$
>  <BINDER>
GLPREYVNAR (also called Her2/neu.549 (10-mer)) [HER2/neu peptide, position 549, 10 amino acids]

>  <relative binding ratio>
0.0003 ratio (IC50 standard / IC50 test)

$$$$
>  <BINDER>
GSGAFGTVYK (also called Her2/neu.727 (10-mer)) [HER2/neu peptide, position 727, 10 amino acids]

>  <relative binding ratio>
0.13 ratio (IC50 standard / IC50 test)

$$$$
